# Test system: HOP-62 NSCLC
# measurement_protocol: NCI-60 one-dose screen, 48 h
# condition_summary: 10 µM
About 83,000 compounds went through this panel and 20% of them were active in at least one assay; those are over-represented in the sample as a whole. Activity calls are given as the source filed them. The calls were made as follows: active = growth percent below 10; inactive = the rest.
Please answer using one outcome listed in true (1) (active), false (0) (inactive)

Query block: Record request — test call for Nc1ncn([C@@H]2O[C@H](CO)[C@@H](O)[C@H]2O)c(=O)n1
Result block: true (1)

Query block: Just curious, what result did COc1ccc2c(c1)N(CCO)C1=C(C(=O)OC1)C2c1ccccc1 (stereo not given) get here?
Result block: false (0)

Query block: Could you please tell me the result logged for CCOC(=O)C(NC(=O)C(Cl)Cl)C(O)c1ccccc1 (stereo not given) in this assay?
Result block: false (0)

Query block: Answer briefly: the call reported for O=S(=O)(NCCCNc1nccc(-c2c(-c3ccc(F)cc3)nc3sccn23)n1)c1ccc(F)cc1 in this assay.
Result block: false (0)

Query block: Returns: the outcome recorded for COc1cc(/C=N/NC(=O)c2ccccc2Nc2cccc(C(F)(F)F)c2)cc(OC)c1OC in this assay.
Result block: false (0)

Query block: Would you mind telling me which call this test gave Cc1ccc(Nc2cc(C)nc(NCCCNc3ccnc4cc(Cl)ccc34)n2)cc1 ?
Result block: true (1)

Query block: Short answer needed: outcome of this test for COc1ccc(/C=C2/CN(CCC#N)C/C(=C\c3ccc(OC)cc3)C2=O)cc1 ?
Result block: true (1)

Query block: I'd appreciate the recorded outcome for Cc1cc2ccccc2nc1-c1ccccc1F from this test.
Result block: false (0)

Query block: What was the test verdict on CN(C)c1ccc(-c2cc(-c3cccc(NS(C)(=O)=O)c3)nc(N)c2C#N)cc1 ?
Result block: false (0)

Query block: Given C=C(Cl)[C@@](Cl)(CBr)CC[C@@H](Br)C(C)(C)Cl , state the outcome it received in this test.
Result block: true (1)

All values here come from PubChem BioAssay (NCI).
